- Tested on: E. faecium 3978
- TEST METHOD NOTES: microbe, parasite or virus in culture
- Format: cell-based, Enterococcus faecium
- MEASUREMENT SETUP: 3978, 24 h
RECORDED ENDPOINT: Minimum inhibitory concentration (µg/mL)
Give bare numbers, in µg/mL.

The compound listed as NCCCC[C@H](NC(=O)CCN(Cc1cc(F)c(F)c(F)c1)C(=O)[C@H](CCCCN)NC(=O)CCN(Cc1cc(F)c(F)c(F)c1)C(=O)[C@H](CCCCN)NC(=O)CCN(Cc1cc(F)c(F)c(F)c1)C(=O)[C@H](CCCCN)NC(=O)CCN(Cc1cc(F)c(F)c(F)c1)C(=O)[C@H](CCCCN)NC(=O)CCN(Cc1cc(F)c(F)c(F)c1)C(=O)[C@@H](N)CCCCN)C(=O)N(CCC(N)=O)Cc1cc(F)c(F)c(F)c1 [Compound 8, H-[Lys-βNPhe(F3)]6-NH2] has a reported Minimum inhibitory concentration of 2
